We begin with a simple list: items and their reported differential viability (reversal).
- ASSAY_NOTES: MRP1 drug-resistance reversers in H69AR cells – cell-based, doxorubicin co-treatment, pilot screen (AID 601)
- TEST_CONTEXT: H69AR cells + 2 uM doxorubicin, CellTiter-Glo, 72 h; at 10 µM; active compounds read high
QUANTITY_KIND: differential viability (reversal) (%)

In [3]: df
Out[3]:
                                    compound  assay_value
 0  CC(C)n1c(CN2CCN(C)CC2)nc2c1c(=O)n(C)c(=O)n2C         9.28
 1             CCCCn1c(CNC(=O)CCC)nc2ccccc21         3.83
 2       COC(=O)COc1cccc(NC(=O)COc2ccccc2)c1         3.21
 3  CC1=C(C(N)=O)C(c2ccccn2)n2nc(-c3ccccc3Cl)nc2N1 (centres undefined)         6.15
 4    NC(=O)CSc1cn(CCNC(=O)c2cccs2)c2ccccc12         1.49
 5  CCOC(=O)C1=C(C)NC(=O)NC1c1ccc(OCCO)c(OC)c1 (centres undefined)        -1.96
 6  Cc1ccc(S(=O)(=O)NCCSc2nnnn2-c2ccc(C(N)=O)cc2)cc1        -1.94
 7  COc1ccc(CCNc2oc(COc3ccccc3Cl)nc2C#N)cc1OC         -4.1
 8         CCN1CCN(C(=O)Cn2ncc3ccsc3c2=O)CC1         4.04
 9              CNC(=O)c1ccsc1NC(=O)c1ccccc1        -3.68
10  O=C(Cn1ncc2c(=O)oc3ccccc3c21)NCCCN1CCCC1=O         16.6
11  Cc1onc(-c2ccccc2Cl)c1C(=O)Nc1cnn(Cc2ccccc2)c1         -5.4
12  Cc1cccc(C(=O)N2CCN(C(=O)c3cccc(C)c3)C(C)C2)c1 (centres undefined)         2.61
13  CCOC(=O)c1cccc(NC(=O)CNS(=O)(=O)c2cccs2)c1        -2.06
14            CC(=O)Nc1ccc(N=Cc2ccc[nH]2)cc1        -1.47
15  CCOC(=O)C(CC)n1nc(C)n2c(cc3sccc32)c1=O (centres undefined)        0.895
16  COc1ccc(N2C(=O)CCC(C(=O)N3CCCCC3)C2c2ccc(OC)c(OC)c2)cc1 (centres undefined)         2.14
17  CC1CCCN(C(=O)C23CCC(C)(C(=O)C2)C3(C)C)C1 (centres undefined)         15.3
18  COC(=O)Cn1c(CN2CCN(c3ccccc3F)CC2)nc2c1c(=O)n(C)c(=O)n2C         6.45
19  Cc1nc2ccccn2c1/C(O)=C1\C(=O)C(=O)N(CCCN(C)C)C1c1ccc(F)cc1 (centres undefined)        -13.7
20  CC1=C(C(=O)OC(C)C)C(c2cccc(F)c2)n2ncnc2N1 (centres undefined)        -1.02
21  NC(=O)C1CCN(C(=O)c2cc3n(n2)C(C(F)(F)F)CC(c2ccco2)N3)CC1 (centres undefined)        -0.83
22  Cc1nnc(SCCn2c(N3CCC(Cc4ccccc4)CC3)nc3c2c(=O)[nH]c(=O)n3C)s1         8.24
23  CC(C)c1ccc(-c2nc(N3CCCCC3)[nH]c(=O)c2C#N)cc1         0.79
24  CCc1ccc(N2CC(C(=O)OCC(=O)NC3CCS(=O)(=O)C3)CC2=O)cc1 (centres undefined)         3.14
25             COCCNC(=O)CN1C(=O)CSc2ncccc21         -8.7
26  OC1(c2cccc(C(F)(F)F)c2)CCN(c2ccc(-c3ccccc3)nn2)CC1        -2.92
27    O=C(NCCCN1CCOCC1)c1cc(-c2ccc(O)cc2)on1         5.84
28        Fc1ccc(-c2nnc3ccc(N4CCCC4)nn23)cc1         16.8
29  Cc1ccc(N2C(=O)c3oc4ccccc4c(=O)c3C2c2cccc(O)c2)nc1 (centres undefined)        -11.7
30  Cc1cccc(N(CC(=O)N2CCCC2)S(=O)(=O)c2ccccc2)c1C        -0.32
31  CC(C)c1ccc(C(O)c2cnc(C(C)C)n2C)cc1 (centres undefined)         6.51
32  COc1ccc(OC)c(NC(=O)c2cn(C)c(=O)c3cc(OC)c(OC)cc23)c1         5.68
33  COc1ccc(NC(=O)CSc2nnc(Cc3cccn3C)n2-c2ccc(F)cc2)cc1OC        0.655
34  Cc1ccc(C)c(N2CCN(CCCNC(=O)Cn3cc4c(n3)CCC(C)C4)CC2)c1 (centres undefined)        -20.3
35  CC(=O)N1c2c(cc(Br)cc2S(=O)(=O)N2CCN(c3ccccn3)CC2)CC1C (centres undefined)        -3.56
36     CCC(CC)C(=O)NCCc1cc2ccc(C)cc2[nH]c1=O        -5.36
37     Cc1ccccc1Cn1ccc(NC(=O)c2onc(C)c2Cl)n1         16.8
38  COc1ccc(OC)c(C2=NOC(C(=O)Nc3c(C)n(C)n(-c4ccccc4)c3=O)C2)c1 (centres undefined)         8.86
39     COc1ccc(Nc2ncnc3c2cnn3-c2ccccc2)cc1OC          -31
40  COc1cccc(C2C3=C(N=C4SCC(=O)N42)c2ccccc2CC3)c1OC (centres undefined)         19.8
41  CCCSc1nnc(N2C(=O)CC(c3ccsc3)C3=C2CCCC3=O)s1 (centres undefined)         0.73
42     CCc1cccc(NC(=O)CCc2nc(-c3cccs3)no2)c1         15.6
43  COc1ccc(C2CC(c3cccc(C)c3)n3ncnc3N2)cc1 (centres undefined)        -5.74

====

- ASSAY_NOTES: MRP1 drug-resistance reversers in H69AR cells – cell-based, doxorubicin co-treatment, pilot screen (AID 601)
- TEST_CONTEXT: H69AR cells + 2 uM doxorubicin, CellTiter-Glo, 72 h; at 10 µM; active compounds read high
We begin with a simple list: items and their reported differential viability (reversal).
QUANTITY_KIND: differential viability (reversal) (%)

>>> print(df.to_string())
                                    compound  assay_value
 0  O=C(Cn1nc(Cc2cccnc2)c2ccccc2c1=O)NCC1CCCO1 (stereo not given)        -3.21
 1                  Clc1ccc(SCCCCn2ccnc2)cc1         10.9
 2  CCCc1nnc2n1N=C(c1ccc(-c3cc(Cl)ccc3Cl)o1)CS2         1.35
 3           C=C(C)Cn1c(-c2ccccc2)nc2ccccc21        0.815
 4  COc1cccc(C2CC(c3ccc(C)cc3)Nc3nc(N)nn32)c1 (stereo not given)         4.01
 5  COc1ccc2[nH]c(C)c(CCN3C(=O)OC(C)(C)C3(C)O)c2c1 (stereo not given)        -10.4
 6  COC(=O)CN1C(=O)CC(C)(C)S(=O)c2ccccc21 (stereo not given)         8.85
 7   Cc1ccc(C(=O)CSc2n[nH]c(-c3ccco3)n2)cc1C        -3.95
 8  CCCOc1ccc(N2CC(C(=O)Nc3ccc4c(c3)OCO4)CC2=O)cc1 (stereo not given)        -9.04
 9  CCCCOC(=O)c1[nH]c2c(c1C)C(=O)CC(c1cc(OC)c(OC)c(OC)c1)C2 (stereo not given)          0.9
10      O=C(Cc1cccs1)Nc1ccccc1NC(=O)Cc1cccs1         3.74
11  CCN(CC)C(=O)C1CCCN(c2ncnc3c2cnn3-c2ccc(Cl)cc2)C1 (stereo not given)         2.38
12   Cc1nnc(SCC(=O)Nc2ccc3c4c(cccc24)CC3)n1C        0.115
13  Cc1cc(C)c(C(=O)Nc2ccc(S(=O)(=O)Nc3onc(C)c3C)cc2)c(C)c1          6.5
14  C=CCn1c(COc2ccc(CC)cc2)nnc1SC/C(O)=C(\C#N)c1nc2ccccc2[nH]1        -1.07
15  Cc1cc(C)n2c(SCCN3C(=O)c4ccccc4C3=O)nnc2n1         11.1
16  CC(=O)Nc1nnc(SCC(=O)NCC2CCCO2)s1 (stereo not given)         3.56
17  Cn1c(=O)c2c(nc(SCCOc3ccc4ccc(=O)oc4c3)n2C)n(C)c1=O         14.3
18  CCN(CC)C(=O)C1CCCc2c1[nH]c1ccc(Cl)cc21 (stereo not given)         5.98
19  CCCCn1c(CN2CCN(c3ccc(F)cc3)CC2)nc2c1c(=O)n(C)c(=O)n2C        -3.86
20   COC(=O)c1ccc(-c2nn(C)c(=O)c3ccccc23)cc1         7.75
21      COc1ccc(CNC(=O)c2cnc3n(c2=O)CCS3)cc1        -3.02
22  COc1cccc(-c2nc(CS(=O)(=O)CC(=O)NCc3ccc(Cl)cc3)c(C)o2)c1         10.1
23  O=C(Nc1ccncc1)C1CCCN(S(=O)(=O)c2cccc3cccnc23)C1 (stereo not given)        -58.8
24      O=C(CSc1nnnn1-c1ccccc1)Nc1ccc(Cl)cc1         6.46
25                 CS(=O)(=O)Nc1ccccc1C(=O)O         2.55
26  CCN(CC)c1ccc2cc(-c3nc4ccccc4[nH]3)c(=O)oc2c1       -0.345
27              CCOC(=O)Cn1ncc(-c2ccccc2)c1N         7.02
28  COCCNC(=O)c1ccc(CS(=O)(=O)c2c(Cl)cccc2Cl)o1         4.06
29               O=c1oc2ccccc2cc1NCc1ccccc1O        -13.5
30   CCOc1ccccc1N(CC(=O)N1CCCCCC1)S(C)(=O)=O         10.3
31  Cc1noc(C)c1CSc1ccccc1C(=O)N1CCN(c2ccccc2)CC1         -6.2
32  CCOc1cc(C2NC(=O)NC(O)(C(F)(F)F)C2C(=O)c2ccccc2)ccc1OC (stereo not given)         5.23
33  Cn1c(=O)oc2cc(S(=O)(=O)N3CCN(c4ccccn4)CC3)ccc21        0.275
34  COc1cc(C(O)c2nc3ccccc3n2C)cc(OC)c1OC (stereo not given)         9.33
35              CC1(C)CC(=O)C(C=NCCO)=C(O)C1         2.35
36  Cc1cccc(C2CC(c3ccccc3)Nc3nc(N)nn32)c1 (stereo not given)         8.54
37  O=C(c1cnccn1)N(c1ccccc1)C1(C(=O)NC2CCCC2)CCCCC1        -2.94
38  COc1cccc(C2C(C(=O)c3cccs3)=C(O)C(=O)N2CCCn2ccnc2)c1OC (stereo not given)         20.9
39  CC(C)c1nnc(NC(=O)c2ccc(N3C(=O)CCC3=O)cc2)s1        -1.78
40  CC(=O)c1ccc(NC(=O)C2CCN(S(=O)(=O)c3cccc4cccnc34)CC2)cc1        -5.16
41  Cn1c(C(=O)NCCCN2CCN(c3ccc(F)cc3)CC2)cc2c(=O)n(C)c3ccccc3c21         4.36
42                     O=c1c2ccccc2nc2n1CCN2         26.2
43      CCn1c(SCC(=O)Nc2ccc(Cl)cc2)nnc1C1CC1         11.1
44  O=C(NC1CCCC1)C1CCCN(S(=O)(=O)c2cccc3cccnc23)C1 (stereo not given)         3.92
